Values from the supplement of paper PMC10065799

target: EPHB2 (UniProt P29323); assay: phosphorylation enrichment, bacterial display (enrichment ratio); higher = better substrate or ligand; peptides without Tyr show the background;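 also: 11-residue human phosphosite peptides and single-mutation variants displayed on the E. coli surface, counted by deep sequencing, each peptide's frequency after selection divided by its frequency in the unselected input library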;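 also: frequency after pTyr selection over input frequency; kinase dosed for 20-30% of maximal phosphorylation in three min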
Sequence (P29323 whole entry, looked up): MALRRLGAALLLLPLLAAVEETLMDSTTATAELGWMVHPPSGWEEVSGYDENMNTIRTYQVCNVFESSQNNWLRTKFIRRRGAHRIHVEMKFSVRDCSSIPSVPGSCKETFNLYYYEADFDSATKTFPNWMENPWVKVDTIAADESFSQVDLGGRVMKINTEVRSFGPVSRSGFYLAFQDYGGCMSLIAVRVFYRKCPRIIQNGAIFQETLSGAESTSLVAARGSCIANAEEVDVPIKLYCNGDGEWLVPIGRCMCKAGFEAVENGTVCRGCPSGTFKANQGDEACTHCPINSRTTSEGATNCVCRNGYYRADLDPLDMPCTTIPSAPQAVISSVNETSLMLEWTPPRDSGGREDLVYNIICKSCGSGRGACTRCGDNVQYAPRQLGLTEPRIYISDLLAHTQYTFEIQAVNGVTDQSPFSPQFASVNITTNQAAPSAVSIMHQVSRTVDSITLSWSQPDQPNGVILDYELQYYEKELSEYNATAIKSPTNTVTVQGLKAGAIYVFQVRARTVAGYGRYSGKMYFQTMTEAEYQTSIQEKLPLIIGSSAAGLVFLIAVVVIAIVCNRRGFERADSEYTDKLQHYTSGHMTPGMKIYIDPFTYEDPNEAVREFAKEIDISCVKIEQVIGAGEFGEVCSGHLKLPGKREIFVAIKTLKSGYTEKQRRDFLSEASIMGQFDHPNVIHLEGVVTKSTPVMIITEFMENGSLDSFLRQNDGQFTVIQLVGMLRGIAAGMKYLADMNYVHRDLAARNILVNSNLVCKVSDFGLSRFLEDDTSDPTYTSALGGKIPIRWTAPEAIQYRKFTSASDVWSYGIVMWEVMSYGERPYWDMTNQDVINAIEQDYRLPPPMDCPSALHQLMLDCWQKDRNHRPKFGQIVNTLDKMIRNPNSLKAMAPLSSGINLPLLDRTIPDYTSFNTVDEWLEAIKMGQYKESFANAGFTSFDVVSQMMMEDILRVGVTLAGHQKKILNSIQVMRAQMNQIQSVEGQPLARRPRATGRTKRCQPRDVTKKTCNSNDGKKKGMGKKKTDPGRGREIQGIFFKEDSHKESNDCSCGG
Mark satisfied for reported phosphorylation enrichment of 0.5 or greater; mark not satisfied for anything smaller.

| entry sequence | discrete label |
| --- | --- |
| PTTKTYFRHFD [HBA1_Y43_P45R] | not satisfied |
| RDLTHYLMKIL [ACTG1_Y188_D187H] | satisfied |
| IHETTYNSIMK [ACTA1_Y281] | not satisfied |
| GTVRDYPDFNP [ANXA3_Y15_S19N] | not satisfied |
| SVTGTYSPALN [TP53_Y126_C124G] | not satisfied |
| TKEPKYGGAGS [KIAA1210_Y1615_E1616G] | not satisfied |
| DGLASYLDKVR [KRT12_Y139_R135G] | not satisfied |
| SGETKYNPTEA [NBEAL2_Y2748_E2747K] | not satisfied |
| ILGRYYETGSI [PAX2_Y73] | satisfied |
| SSEYHYVGGFY [CTSC_Y347] | satisfied |
| QSAGQYSSQGL [TNNI3K_Y788] | not satisfied |
| IVGLLYRLLTE [SETX_Y1978] | satisfied |
| ATHSRYRLNDF [CLDN14_Y233_G232R_YF] | not satisfied |
| GPGSGYTNIMR [PKLR_Y564_R559G] | not satisfied |
| PSQRCYVYYYS [PTEN_Y174_R173C] | satisfied |
| ADNQRYAFMPL [TMEM87B_Y460_N456D] | satisfied |
| SVTCTYSPALK [TP53_Y126_N131K] | satisfied |
| VVSMNYRVGAL [BCHE_Y174] | not satisfied |
| METKGYQSLPE [NR3C2_Y6_H7Q] | not satisfied |
| PQQLWYTHEKK [UBTF_Y207] | not satisfied |
| QELRRYLESGV [MICA_Y194_K196E] | satisfied |
| TPLSAYQIPRT [GAB2_Y324] | not satisfied |
| TKYVAYIESQG [KDM4B_Y34_N29T] | satisfied |
| RGFDTYFGFLL [ARSB_Y165_YF] | satisfied |
| WRPFGYPRCRR [BCS1L_Y181_R184C] | not satisfied |
| LTGIAYGLPHW [SLC22A14_Y291_S292G] | satisfied |
| TDKLFYIFTPG [SLC27A4_Y243_S247P_YF] | satisfied |
| LNTFHHAGVSA [POLR2A_Y1109_Y1109H] | satisfied |
| QEGPEYWDLET [HLA-A_Y83_Q86L] | satisfied |
| LKLWDYSRGRC [WDR5B_Y239] | satisfied |
| TGEKLYQHKEF [ZNF283_Y627_R629H] | not satisfied |
| ESMLRYDVFGG [STOX1_Y607_E608D_YF] | satisfied |
| SRWKLYPRMLR [HAO1_Y50] | not satisfied |
| FPHVISARLWR [SMAD4_Y95_Y95S] | satisfied |
| KLFFIYTSGTT [SLC27A4_Y245_YF] | satisfied |
| PPSGEYFGQCG [TRIP6_Y275] | satisfied |
| TGDVQYRSSVR [FREM2_Y2158] | not satisfied |
| SEASFYKSLNL [NGEF_Y289_YF] | satisfied |
| VLALWYYYLTH [ZDHHC23_Y127] | satisfied |
| LECEWYKNGVK [TTN_Y2112_P2107L] | satisfied |
| HLSPEYKQNEI [GJB1_Y243_R238H] | satisfied |
| RRQDLYSARDL [SART1_Y249] | not satisfied |
| GILDVYIFLGP [GAA_Y340] | satisfied |
| MASISYDFCRV [BST2_Y6_T4I_YF] | satisfied |
| CTIIHYNFMCN [TP53_Y234_T231I_YF] | satisfied |
| RPSELYYSKIS [SMG1_Y2253_G2258S] | satisfied |
| KLKRSYSSPDI [USP8_Y717] | satisfied |
| LAIEWYVVVCK [RHO_Y136_R135W] | satisfied |
| NTVDYYDLYGG [PTPN11_Y63_G60V] | satisfied |
| TEALFYTDDTA [ADPRS_Y75_YF] | satisfied |
| ENRLDYGSAWA [AR_Y395_P392R] | not satisfied |
| SQINLYQDVML [ZNF806_Y33_A28S] | satisfied |
| LRNIDYFRLDG [ATRX_Y2083_YF] | satisfied |
